target: human cannabinoid CB1 receptor (Homo sapiens, UniProt P21554); assay: CB1 receptor radioligand ([3H]CP-55,940) displacement binding assay; conditions: Experimental activity (pIC50, M), CoMFA training and test set input
Sequence (P21554 whole entry): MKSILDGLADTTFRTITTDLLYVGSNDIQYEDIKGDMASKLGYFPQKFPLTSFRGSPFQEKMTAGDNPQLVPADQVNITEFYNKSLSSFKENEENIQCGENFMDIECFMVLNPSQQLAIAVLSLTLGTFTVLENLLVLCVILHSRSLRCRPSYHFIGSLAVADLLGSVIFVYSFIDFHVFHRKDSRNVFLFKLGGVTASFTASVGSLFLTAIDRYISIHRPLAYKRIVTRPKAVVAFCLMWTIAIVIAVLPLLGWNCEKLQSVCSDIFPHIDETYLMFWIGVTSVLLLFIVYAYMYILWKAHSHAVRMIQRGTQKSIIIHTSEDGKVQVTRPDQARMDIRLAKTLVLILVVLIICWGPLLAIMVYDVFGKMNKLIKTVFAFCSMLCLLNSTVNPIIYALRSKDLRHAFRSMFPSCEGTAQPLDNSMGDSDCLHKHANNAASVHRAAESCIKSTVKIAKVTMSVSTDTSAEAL
Rule for this label: yes (1) means IC50 is less than 50 nM; no (0) means IC50 is at least 50 nM.

In [3]: df
Out[3]:
                                    compound                        measurement_target  qualitative_label
 0  O=C(c1cccc2ccccc12)n1c(-c2cccnc2)nc2cc(F)ccc21 [Compound 15]  human cannabinoid CB1 receptor (Homo sapiens, UniProt P21554)             no (0)
 1  c1cncc(-c2nc3ccccc3n2Cc2cccc3ccccc23)c1 [Compound 37]  human cannabinoid CB1 receptor (Homo sapiens, UniProt P21554)             no (0)
 2  Cc1cc2nc(-c3ccccn3)n(Cc3cccc4ccccc34)c2cc1C [Compound 36]  human cannabinoid CB1 receptor (Homo sapiens, UniProt P21554)            yes (1)
 3  Cc1cc2nc(-c3ccncc3)n(C(=O)c3cccc4ccccc34)c2cc1C [Compound 21]  human cannabinoid CB1 receptor (Homo sapiens, UniProt P21554)            yes (1)
 4  Cc1cc2nc(-c3ccccn3)n(Cc3ccc4ccccc4c3)c2cc1C [Compound 48]  human cannabinoid CB1 receptor (Homo sapiens, UniProt P21554)             no (0)
 5  Cc1cc2nc(-c3cccnc3)n(C(=O)c3ccc4ccccc4c3)c2cc1C [Compound 28]  human cannabinoid CB1 receptor (Homo sapiens, UniProt P21554)             no (0)
 6  Cc1cc2nc(-c3ccncc3)n(Cc3cccc4ccccc34)c2cc1C [Compound 44]  human cannabinoid CB1 receptor (Homo sapiens, UniProt P21554)            yes (1)
 7  Fc1ccc2nc(-c3cccnc3)n(Cc3ccc4ccccc4c3)c2c1 [Compound 51]  human cannabinoid CB1 receptor (Homo sapiens, UniProt P21554)            yes (1)
 8  O=C(c1ccc2ccccc2c1)n1c(-c2ccncc2)nc2ccc(F)cc21 [Compound 31]  human cannabinoid CB1 receptor (Homo sapiens, UniProt P21554)            yes (1)
 9  O=C(c1cccc2ccccc12)n1c(-c2ccncc2)nc2ccccc21 [Compound 18]  human cannabinoid CB1 receptor (Homo sapiens, UniProt P21554)             no (0)
10  c1ccc(-c2nc3ccccc3n2Cc2ccc3ccccc3c2)nc1 [Compound 45]  human cannabinoid CB1 receptor (Homo sapiens, UniProt P21554)             no (0)
11  O=C(c1ccc2ccccc2c1)n1c(-c2ccncc2)nc2cc(F)ccc21 [Compound 30]  human cannabinoid CB1 receptor (Homo sapiens, UniProt P21554)             no (0)
12  O=C(c1ccc2ccccc2c1)n1c(-c2ccccn2)nc2ccc(F)cc21 [Compound 23]  human cannabinoid CB1 receptor (Homo sapiens, UniProt P21554)            yes (1)
13  Cc1cc2nc(-c3cccnc3)n(Cc3ccc4ccccc4c3)c2cc1C [Compound 52]  human cannabinoid CB1 receptor (Homo sapiens, UniProt P21554)             no (0)
14  Fc1ccc2nc(-c3cccnc3)n(Cc3cccc4ccccc34)c2c1 [Compound 39]  human cannabinoid CB1 receptor (Homo sapiens, UniProt P21554)            yes (1)
15  Fc1ccc2c(c1)nc(-c1cccnc1)n2Cc1cccc2ccccc12 [Compound 38]  human cannabinoid CB1 receptor (Homo sapiens, UniProt P21554)             no (0)
16  Fc1ccc2c(c1)nc(-c1ccncc1)n2Cc1ccc2ccccc2c1 [Compound 54]  human cannabinoid CB1 receptor (Homo sapiens, UniProt P21554)             no (0)
17  O=C(c1cccc2ccccc12)n1c(-c2cccnc2)nc2ccccc21 [Compound 14]  human cannabinoid CB1 receptor (Homo sapiens, UniProt P21554)             no (0)
